# tested_system: T1, recombinant human soluble gpNMB (recombinant human gpNMB-FLAG-His) (human, UniProt Q14956 23-498)
# T1 sequence: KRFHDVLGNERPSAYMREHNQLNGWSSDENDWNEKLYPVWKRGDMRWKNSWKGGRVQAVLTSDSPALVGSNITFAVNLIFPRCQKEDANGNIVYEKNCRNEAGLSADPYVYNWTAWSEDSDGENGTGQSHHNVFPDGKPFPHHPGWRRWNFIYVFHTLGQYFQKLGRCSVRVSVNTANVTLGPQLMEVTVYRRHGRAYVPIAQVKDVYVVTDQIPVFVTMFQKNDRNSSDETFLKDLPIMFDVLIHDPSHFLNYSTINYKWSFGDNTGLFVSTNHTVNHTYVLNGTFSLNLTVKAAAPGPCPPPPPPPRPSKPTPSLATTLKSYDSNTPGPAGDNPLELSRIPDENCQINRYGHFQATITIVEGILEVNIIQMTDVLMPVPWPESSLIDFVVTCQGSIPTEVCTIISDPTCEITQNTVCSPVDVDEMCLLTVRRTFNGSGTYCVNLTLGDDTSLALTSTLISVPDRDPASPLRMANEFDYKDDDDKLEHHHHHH
# assay_summary: antigen ELISA, vs hGPN18-2_H2L3
outcome_measure: Relative binding activity
Kindly provide the number alone.

Use these answered entries as a reference point.
binder	value_observed
hGPN18-2_H2L3 VH D60A (antibody, V domains shown) VH: QVQLVQSGPGLVQPTQTLTLTCSFSGFSLSTSVMGVGWIRQPSGKGLEWLADIWWDDDKAYNPSLKSRLTISKDTSKNQVVLTMTNMDTVDTATYYCARTYYSNYEYYGMDYWGQGTLVTVSS VL: DIVMTQSPDSLAVSLGERATINCRSSQTIILSNGNTYLEWYQQKPGQPPKLLIYKVSNRFSGVPDRFSGSGSGTDFTLTISSLQAEDVAVYYCFQGSHVPFTFGSGTKLEIKR	0.98
hGPN18-2_H2L3 VH D58A (antibody, V domains shown) VH: QVQLVQSGPGLVQPTQTLTLTCSFSGFSLSTSVMGVGWIRQPSGKGLEWLADIWWDDAKDYNPSLKSRLTISKDTSKNQVVLTMTNMDTVDTATYYCARTYYSNYEYYGMDYWGQGTLVTVSS VL: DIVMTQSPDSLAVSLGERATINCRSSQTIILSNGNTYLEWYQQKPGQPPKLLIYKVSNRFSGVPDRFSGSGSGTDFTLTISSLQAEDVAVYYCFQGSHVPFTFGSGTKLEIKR	0.5
hGPN18-2_H2L3 VH D56A (antibody, V domains shown) VH: QVQLVQSGPGLVQPTQTLTLTCSFSGFSLSTSVMGVGWIRQPSGKGLEWLADIWWADDKDYNPSLKSRLTISKDTSKNQVVLTMTNMDTVDTATYYCARTYYSNYEYYGMDYWGQGTLVTVSS VL: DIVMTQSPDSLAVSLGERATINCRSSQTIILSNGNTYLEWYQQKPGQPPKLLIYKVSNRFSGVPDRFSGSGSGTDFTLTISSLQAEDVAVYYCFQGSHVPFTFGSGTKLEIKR	0.63
hGPN18-2_H2L3 VH D52A (antibody, V domains shown) VH: QVQLVQSGPGLVQPTQTLTLTCSFSGFSLSTSVMGVGWIRQPSGKGLEWLAAIWWDDDKDYNPSLKSRLTISKDTSKNQVVLTMTNMDTVDTATYYCARTYYSNYEYYGMDYWGQGTLVTVSS VL: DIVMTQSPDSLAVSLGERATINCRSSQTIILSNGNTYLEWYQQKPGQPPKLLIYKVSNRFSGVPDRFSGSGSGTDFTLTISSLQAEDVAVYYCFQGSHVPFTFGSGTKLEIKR	0.05

# next binder below
What value of measured Relative binding activity is listed for hGPN18-2_H2L3 (antibody, V domains shown, humanized; also called humanized anti-gpNMB antibody H2L3) VH: QVQLVQSGPGLVQPTQTLTLTCSFSGFSLSTSVMGVGWIRQPSGKGLEWLADIWWDDDKDYNPSLKSRLTISKDTSKNQVVLTMTNMDTVDTATYYCARTYYSNYEYYGMDYWGQGTLVTVSS VL: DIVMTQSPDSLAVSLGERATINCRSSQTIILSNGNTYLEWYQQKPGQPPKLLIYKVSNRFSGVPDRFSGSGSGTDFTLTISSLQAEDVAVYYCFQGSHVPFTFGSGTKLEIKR ? 1
